Origin of values: ChEMBL document CHEMBL1148661

Sequence of the target: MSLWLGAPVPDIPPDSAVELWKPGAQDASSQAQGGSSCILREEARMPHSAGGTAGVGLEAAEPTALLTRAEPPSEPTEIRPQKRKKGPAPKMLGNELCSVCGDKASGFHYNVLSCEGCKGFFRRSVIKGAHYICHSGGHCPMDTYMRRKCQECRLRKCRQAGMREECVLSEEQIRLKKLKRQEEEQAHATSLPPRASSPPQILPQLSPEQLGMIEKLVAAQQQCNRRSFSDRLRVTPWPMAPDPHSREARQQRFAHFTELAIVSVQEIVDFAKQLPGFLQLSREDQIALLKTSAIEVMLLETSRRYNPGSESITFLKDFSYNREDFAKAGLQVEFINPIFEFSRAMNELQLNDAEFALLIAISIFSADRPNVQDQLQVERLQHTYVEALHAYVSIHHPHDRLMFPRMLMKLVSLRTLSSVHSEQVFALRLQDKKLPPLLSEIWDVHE
Metric Name: IC50 (nM)

CCCc1c(OCCCN(C)c2ccc(CC(=O)O)cn2)ccc2c(C(F)(F)F)noc12: 105
CCCc1c(OCCCN(C)c2cnc(CC(=O)O)cn2)ccc2c(C(F)(F)F)noc12: 90
CCCc1c(OCCCN(C)c2ccc(CC(=O)O)c(C)c2)ccc2c(C(F)(F)F)noc12: 117

I: CCCc1c(OCCCn2ncc3cc(CC(=O)O)ccc32)ccc2c(C(F)(F)F)noc12
II: CCCc1c(OCCCN(CC)c2ccc(CC(=O)O)cc2)ccc2c(C(F)(F)F)noc12
Query :: Which shows the larger IC50 value: I or II ? Please identify the chosen entry by its label.
Result :: II

---

# Test Target: Oxysterols receptor LXR-alpha (Homo sapiens)
# Sequence (Q13133 whole entry): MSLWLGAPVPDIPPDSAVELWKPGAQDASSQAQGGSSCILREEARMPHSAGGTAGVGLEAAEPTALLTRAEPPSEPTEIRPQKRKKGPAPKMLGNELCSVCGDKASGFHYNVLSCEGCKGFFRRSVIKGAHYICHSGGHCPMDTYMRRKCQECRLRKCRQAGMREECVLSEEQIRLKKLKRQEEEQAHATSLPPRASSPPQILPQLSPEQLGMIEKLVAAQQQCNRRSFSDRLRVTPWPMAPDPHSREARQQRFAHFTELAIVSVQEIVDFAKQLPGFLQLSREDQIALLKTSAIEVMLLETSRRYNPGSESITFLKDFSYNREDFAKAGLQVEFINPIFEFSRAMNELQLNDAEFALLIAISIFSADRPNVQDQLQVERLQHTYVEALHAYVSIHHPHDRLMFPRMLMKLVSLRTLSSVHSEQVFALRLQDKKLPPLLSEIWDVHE
Metric Name: EC50 (nM)

CCCc1c(OCCCN(C)c2ccc(CC(=O)O)c(C)c2)ccc2c(C(F)(F)F)noc12: 1300
CCCc1c(OCCCn2ccc3cc(CCC(=O)O)ccc32)ccc2c(C(F)(F)F)noc12: 820
CCCc1c(OCCCN(C)c2ncc(CC(=O)O)s2)ccc2c(C(F)(F)F)noc12: 1100

---

Protein target, amino acids: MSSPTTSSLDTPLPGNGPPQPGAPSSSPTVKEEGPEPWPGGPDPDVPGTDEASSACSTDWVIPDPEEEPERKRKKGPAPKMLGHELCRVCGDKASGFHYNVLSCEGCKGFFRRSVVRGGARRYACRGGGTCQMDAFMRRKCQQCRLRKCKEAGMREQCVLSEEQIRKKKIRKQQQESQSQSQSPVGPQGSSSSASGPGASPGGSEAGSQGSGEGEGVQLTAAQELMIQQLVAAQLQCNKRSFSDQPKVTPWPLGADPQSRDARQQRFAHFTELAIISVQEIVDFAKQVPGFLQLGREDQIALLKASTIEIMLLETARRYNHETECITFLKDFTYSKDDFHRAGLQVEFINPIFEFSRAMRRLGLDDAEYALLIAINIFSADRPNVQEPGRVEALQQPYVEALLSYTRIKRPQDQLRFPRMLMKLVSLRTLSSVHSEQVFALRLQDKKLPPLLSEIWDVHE
pIC50: −log10 of the molar value.
Metric Name: pIC50

CCCc1c(OCCCCc2ccc(CC(=O)O)cc2)ccc2c(C(F)(F)F)noc12: 6.01
CCCc1c(OCCCN(C)c2ccc(CC(=O)O)c(C(F)(F)F)c2)ccc2c(C(F)(F)F)noc12: 7.74

1: CCCc1c(OCCCN(C)c2ccc(CC(=O)O)cc2)ccc2c(C(F)(F)F)noc12
2: CCCc1c(OCCCN(C)c2ccc(C(=O)O)cc2)ccc2c(C(F)(F)F)noc12
3: CCCc1c(OCCCN2C(=O)Cc3cc(C(=O)O)ccc32)ccc2c(C(F)(F)F)noc12
Query :: Give the ascending ranking of the items by reported pIC50. # format: label list in the order the request specifies
Result :: 3, 2, 1
(3: 6.15, 2: 6.72, 1: 7.60)

---

# Test Target: Peroxisome proliferator-activated receptor delta (Homo sapiens, UniProt Q03181)
# Sequence (Q03181 whole entry): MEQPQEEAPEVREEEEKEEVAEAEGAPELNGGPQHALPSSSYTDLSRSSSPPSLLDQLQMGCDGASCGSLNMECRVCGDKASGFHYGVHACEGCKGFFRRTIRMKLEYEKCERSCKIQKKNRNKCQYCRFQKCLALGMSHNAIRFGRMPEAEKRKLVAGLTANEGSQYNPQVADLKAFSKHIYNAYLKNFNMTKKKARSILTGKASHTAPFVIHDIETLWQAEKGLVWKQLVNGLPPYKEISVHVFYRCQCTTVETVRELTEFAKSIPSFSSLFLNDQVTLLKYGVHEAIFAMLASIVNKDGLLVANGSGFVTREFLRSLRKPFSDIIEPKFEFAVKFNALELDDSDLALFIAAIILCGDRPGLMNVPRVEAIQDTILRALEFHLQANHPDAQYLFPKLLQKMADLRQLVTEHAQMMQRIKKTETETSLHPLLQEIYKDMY
Metric Name: IC50 (nM)

Some entries whose results are on file:
CCCc1c(OCCCN(C)c2cccc(CC(=O)O)c2)ccc2c(C(F)(F)F)noc12: 93
CCCc1c(OCCCNc2ccc(CC(=O)O)cc2)ccc2c(C(F)(F)F)noc12: 88

I: CCCc1c(OCCCN(C)c2ccc(CC(=O)O)c(C)c2)ccc2c(C(F)(F)F)noc12
II: CCCc1c(OCCCn2ccc3cc(CCC(=O)O)ccc32)ccc2c(C(F)(F)F)noc12
Query :: From the recorded data, which exceeds the other in IC50: I or II ? Which one? Tell me its label.
Result :: I
